test system: Escherichia coli TOP10; assay: shrunken log2 fold change of peptide-encoding DNA abundance (4.5 h post-induction vs induction); higher = less antimicrobial activity (less host growth inhibition); conditions: time post-induction: 4.5 h; library: site-saturation at positions 5, 18, 19, 20
Hi, to clarify the labels: Met covers shrunken log2 fold change from -0.1 upward, Not met covers anything below -0.1.

Does shrunken log2 fold change meet or surpass -0.1 for `RRIRWRPPRLPRPRPRPFWFPRP` ?
Not met

Determine whether this sequence has shrunken log2 fold change no lower than -0.1: `RRIRPRPPRLPRPRPRPSGFPRP`
Met

Answer whether shrunken log2 fold change of `RRIRRRPPRLPRPRPRPYCNPRP` is greater than or equal to -0.1.
Not met

Decide: is the reported value of shrunken log2 fold change for `RRIRNRPPRLPRPRPRPPPYPRP` equal to or greater than -0.1?
Met

* * *

Property: shrunken log2 fold change; scope: individual sequences
tested on: Escherichia coli TOP10; experiment: shrunken log2 fold change of peptide-encoding DNA abundance (4.5 h post-induction vs induction); higher = less antimicrobial activity (less host growth inhibition); details: time post-induction: 4.5 h; library: site-saturation at positions 5, 18, 19, 20
// return just the number, without any unit appended

POLYMER_SEQUENCE: RRIRFRPPRLPRPRPRPQVSPRP
RECORDED_MEASUREMENT: -0.298
//
POLYMER_SEQUENCE: RRIRIRPPRLPRPRPRPEDPPRP
RECORDED_MEASUREMENT: 0.0426
//
POLYMER_SEQUENCE: RRIRERPPRLPRPRPRPDNQPRP
RECORDED_MEASUREMENT: -0.459

Item: `RRIRGRPPRLPRPRPRPEPYPRP` | System: Escherichia coli TOP10 | shrunken log2 fold change: 0.141

* * *

test system: Escherichia coli TOP10; assay: shrunken log2 fold change of peptide-encoding DNA abundance (4.5 h post-induction vs induction); higher = less antimicrobial activity (less host growth inhibition); conditions: time post-induction: 4.5 h; library: site-saturation at positions 5, 18, 19, 20
QUANTITY: shrunken log2 fold change
# respond with the number and nothing more

POLYMER_SEQUENCE: RRIRYRPPRLPRPRPRPFYIPRP
RECORDED_MEASUREMENT: -1.26
//
POLYMER_SEQUENCE: RRIRCRPPRLPRPRPRPAMKPRP
RECORDED_MEASUREMENT: -0.104
//
POLYMER_SEQUENCE: RRIRFRPPRLPRPRPRPLPAPRP
RECORDED_MEASUREMENT: 0.51
//
POLYMER_SEQUENCE: RRIRERPPRLPRPRPRPPWRPRP
RECORDED_MEASUREMENT: 0.424

In plain terms, `RRIRWRPPRLPRPRPRPEEYPRP` has a documented shrunken log2 fold change of 0.113

* * *

The entries below are paired with their reported shrunken log2 fold change.
system: Escherichia coli TOP10; assay: shrunken log2 fold change of peptide-encoding DNA abundance (4.5 h post-induction vs induction); higher = less antimicrobial activity (less host growth inhibition); conditions: time post-induction: 4.5 h; library: site-saturation at positions 5, 18, 19, 20;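 also: peptides expressed intracellularly from a pBAD plasmid library in pooled LB shake-flask culture, induced with 0.3% L-arabinose, DNA abundance read by NGS, three biological replicates, DESeq2 with apeglm shrinkage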
I'd appreciate a reply containing only the number, no unit.

POLYMER_SEQUENCE: RRIRFRPPRLPRPRPRPRNYPRP
shrunken log2 fold change: -0.236
//
POLYMER_SEQUENCE: RRIRGRPPRLPRPRPRPTARPRP
shrunken log2 fold change: 1.27
//
POLYMER_SEQUENCE: RRIRDRPPRLPRPRPRPDGIPRP
shrunken log2 fold change: -0.0113
//
POLYMER_SEQUENCE: RRIRHRPPRLPRPRPRPRTHPRP
shrunken log2 fold change: -0.137

shrunken log2 fold change in this record for `RRIRERPPRLPRPRPRPDKMPRP` : -0.0703

Value of shrunken log2 fold change reported for the sequence `RRIRYRPPRLPRPRPRPEEMPRP` is -0.0902

Reported shrunken log2 fold change ( `RRIRHRPPRLPRPRPRPRVMPRP` ) = 0.0966

Sure, the documented shrunken log2 fold change for `RRIRQRPPRLPRPRPRPFWHPRP` is -0.469

Documented shrunken log2 fold change of `RRIRKRPPRLPRPRPRPMAEPRP` : 0.208
